Experiment: NCI Yeast Anticancer Drug Screen. Data for the cln2 rad14 strain (AID 165);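 note: 0% = growth equal to vehicle treated cultures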
Settings: S. cerevisiae cln2 rad14 strain, at 50.0 µM, hits give high values
The panel holds about 79,000 compounds, 15% with a hit somewhere; the sample as a whole holds those more often.
Let's look at some compounds and their measured growth inhibition.

- COMPOUND: "CCCC(O)C(C)C(C)O (stereo not given)"
  growth inhibition [%]: 25.1
- COMPOUND: "COc1ccc(C2C(C#N)=C(S)N(C3OC(COC(C)=O)C(OC(C)=O)C(OC(C)=O)C3OC(C)=O)C(c3ccccc3)=C2C(C)=O)cc1 (stereo not given)"
  growth inhibition [%]: -4.2
- COMPOUND: "Cc1nc2c(=O)[nH]c(=S)[nH]c2[nH]c1=O"
  growth inhibition [%]: 12.5
- COMPOUND: "CC(=O)SC1CC2CCC1C2 (stereo not given)"
  growth inhibition [%]: 9.95
- COMPOUND: "CC(C)(O)c1cc2nc3ccccc3nc2n1CCO"
  growth inhibition [%]: 4.25

Data origin, for the record: PubChem BioAssay (NCI)
